Measured values drawn from paper PMC9689838 for this set.

system: Human soluble epoxide hydrolase (sEH) (Homo sapiens)
Construct: purchased Cayman Chemical (Ann Arbor, MI, USA)
Sequence (P34913 1-555): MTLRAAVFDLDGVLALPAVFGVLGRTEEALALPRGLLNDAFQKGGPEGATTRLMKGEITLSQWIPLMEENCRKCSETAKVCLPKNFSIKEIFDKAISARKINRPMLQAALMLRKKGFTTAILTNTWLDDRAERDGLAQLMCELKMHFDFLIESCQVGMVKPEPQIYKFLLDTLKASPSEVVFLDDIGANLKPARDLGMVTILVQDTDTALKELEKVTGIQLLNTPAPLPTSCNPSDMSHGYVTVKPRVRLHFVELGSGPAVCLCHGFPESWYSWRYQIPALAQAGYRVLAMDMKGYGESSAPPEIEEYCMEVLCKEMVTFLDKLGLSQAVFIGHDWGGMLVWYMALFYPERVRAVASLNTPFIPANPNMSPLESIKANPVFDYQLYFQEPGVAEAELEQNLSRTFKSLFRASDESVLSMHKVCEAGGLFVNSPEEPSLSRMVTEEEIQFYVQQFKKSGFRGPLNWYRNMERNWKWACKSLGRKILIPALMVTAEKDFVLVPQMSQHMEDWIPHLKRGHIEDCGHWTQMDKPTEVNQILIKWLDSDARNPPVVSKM
assayName: sEH inhibitory activity assay with fluorescent substrate PHOME
Type: biochemical
protocolConditions: peptide 100 µM final; 62.5 ng/mL sEH, 10 µM PHOME, 40 min, 37 °C; mean ± SD n = 3
Where a SMILES comes first, the peptide text is derived from it.
outcomeMeasure: inhibition at 100 µM (%)
Provide only the numeric value, understood in %.

Fill blank: measured inhibition at 100 µM of the molecule N[C@@H](Cc1c[nH]c2ccccc12)C(=O)N[C@@H](CCC(=O)O)C(=O)N[C@@H](Cc1ccc(O)cc1)C(=O)O [WEY] (H-Trp-Glu-Tyr-OH) is ____.
70

Next: N[C@@H](Cc1c[nH]c2ccccc12)C(=O)N[C@@H](Cc1c[nH]c2ccccc12)C(=O)N[C@@H](Cc1ccc(O)cc1)C(=O)O [WWY] (H-Trp-Trp-Tyr-OH)
55.1

Next: N[C@@H](Cc1ccc(O)cc1)C(=O)N[C@@H](Cc1ccccc1)C(=O)N[C@@H](Cc1ccc(O)cc1)C(=O)O [YFY] (H-Tyr-Phe-Tyr-OH)
53

Next: N[C@@H](Cc1ccc(O)cc1)C(=O)N[C@@H](Cc1ccccc1)C(=O)N[C@@H](Cc1c[nH]c2ccccc12)C(=O)O [YFW] (H-Tyr-Phe-Trp-OH)
57.4

Next: N[C@@H](Cc1c[nH]c2ccccc12)C(=O)N[C@@H](Cc1ccc(O)cc1)C(=O)N[C@@H](Cc1c[nH]c2ccccc12)C(=O)O [WYW] (H-Trp-Tyr-Trp-OH)
60.3

====

So I've got a bunch of compounds here, and I need their IC50 values.
system: Human soluble epoxide hydrolase (sEH) (Homo sapiens)
Sequence (P34913 1-555): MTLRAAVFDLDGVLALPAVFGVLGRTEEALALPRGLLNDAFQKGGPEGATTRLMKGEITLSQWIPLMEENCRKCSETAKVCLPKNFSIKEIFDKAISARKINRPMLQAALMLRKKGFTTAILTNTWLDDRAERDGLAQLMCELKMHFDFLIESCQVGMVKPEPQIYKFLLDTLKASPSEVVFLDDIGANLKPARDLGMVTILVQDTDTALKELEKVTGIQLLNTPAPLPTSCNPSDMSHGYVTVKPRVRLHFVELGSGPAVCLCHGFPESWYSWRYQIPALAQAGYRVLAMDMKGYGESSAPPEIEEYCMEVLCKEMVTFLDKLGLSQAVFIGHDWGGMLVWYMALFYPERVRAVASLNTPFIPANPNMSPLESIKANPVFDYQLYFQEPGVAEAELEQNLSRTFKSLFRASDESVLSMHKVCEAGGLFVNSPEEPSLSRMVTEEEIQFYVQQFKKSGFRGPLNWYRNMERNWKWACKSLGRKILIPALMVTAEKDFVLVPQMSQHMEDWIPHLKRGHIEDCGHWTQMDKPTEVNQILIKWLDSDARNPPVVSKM
Where a SMILES comes first, the peptide text is derived from it.
Provide only the numeric value, understood in µM.

Fill blank: measured IC50 of the compound N[C@@H](Cc1ccc(O)cc1)C(=O)N[C@@H](Cc1ccccc1)C(=O)N[C@@H](Cc1c[nH]c2ccccc12)C(=O)O [YFW] (H-Tyr-Phe-Trp-OH) is ____.
96

Next: N[C@@H](Cc1c[nH]c2ccccc12)C(=O)N[C@@H](CCC(=O)O)C(=O)N[C@@H](Cc1ccc(O)cc1)C(=O)O [WEY] (H-Trp-Glu-Tyr-OH)
55.4

Next: N[C@@H](Cc1c[nH]c2ccccc12)C(=O)N[C@@H](Cc1c[nH]c2ccccc12)C(=O)N[C@@H](Cc1ccc(O)cc1)C(=O)O [WWY] (H-Trp-Trp-Tyr-OH)
68.8

Next: N[C@@H](Cc1c[nH]c2ccccc12)C(=O)N[C@@H](Cc1ccc(O)cc1)C(=O)N[C@@H](Cc1c[nH]c2ccccc12)C(=O)O [WYW] (H-Trp-Tyr-Trp-OH)
70.7

Next: N[C@@H](Cc1ccc(O)cc1)C(=O)N[C@@H](Cc1ccccc1)C(=O)N[C@@H](Cc1ccc(O)cc1)C(=O)O [YFY] (H-Tyr-Phe-Tyr-OH)
94.1
